# Tested on: KMS11 cells
# method: Long term proliferation assay (14-day), KMS11
# Type: cell-based
# condition-summary: Homo sapiens, KMS-11, 336 h; KMS11, MM; 14-day timepoint; absolute IC50
measured-attribute: IC50

Asked: For the molecule shown here, COCc1cc(Cl)c(F)c(C(=O)NNS(=O)(=O)c2cccc(O)c2)c1 [Compound A-30] , give the reported IC50.
Given back: ≤ 10 µM

###

# assay-system: KAT-8 (Homo sapiens (Human), UniProt Q9H7Z6)
# Sequence (Q9H7Z6 other isoform, or with tags, fused parts or gaps): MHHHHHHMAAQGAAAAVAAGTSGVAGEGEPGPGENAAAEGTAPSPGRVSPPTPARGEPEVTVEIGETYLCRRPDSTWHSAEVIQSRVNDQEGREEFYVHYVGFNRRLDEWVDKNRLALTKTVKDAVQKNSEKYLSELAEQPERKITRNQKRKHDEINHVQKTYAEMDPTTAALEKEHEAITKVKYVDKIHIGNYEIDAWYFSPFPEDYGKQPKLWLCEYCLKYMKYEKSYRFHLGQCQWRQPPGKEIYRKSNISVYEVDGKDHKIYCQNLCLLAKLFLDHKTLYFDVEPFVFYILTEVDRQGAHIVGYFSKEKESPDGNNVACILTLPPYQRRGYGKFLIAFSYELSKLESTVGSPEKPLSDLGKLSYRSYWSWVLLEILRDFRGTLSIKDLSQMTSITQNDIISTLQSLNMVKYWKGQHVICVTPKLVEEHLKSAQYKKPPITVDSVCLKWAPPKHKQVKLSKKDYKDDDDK
# method: KAT-8 biochemical inhibition assay (SAMDI mass spectrometry)
measured-attribute: IC50

Asked: // query IC50 value for entry Cn1cnc(-c2cc(Cl)c(F)c(C(=O)NNS(=O)(=O)c3ccc(=O)[nH]c3)c2)c1
Given back: 10 to 50 µM

Asked: Could you tell me which IC50 is on file for Cn1cnc(-c2cc(Cl)c(F)c(C(=O)NNS(=O)(=O)c3ccc(F)cc3)c2)c1 ?
Given back: 10 to 50 µM

Asked: # input compound: Cn1cnc(-c2cc(F)c(F)c(C(=O)NNS(=O)(=O)C3CCOCC3)c2)c1 ; wanted: its IC50
Given back: 10 to 50 µM

Asked: Name the recorded IC50 for Cn1cnc(-c2cc(Cl)c(F)c(C(=O)NNS(=O)(=O)CC3CN(C(=O)OC(C)(C)C)C3)c2)c1 .
Given back: 10 to 50 µM

Asked: What does the record list as IC50 for CN(C)C(=O)NC1CCC(CS(=O)(=O)NNC(=O)c2cc(-c3cn(C)cn3)cc(Cl)c2F)C1 (stereo not drawn) ?
Given back: 10 to 50 µM

Asked: What measured IC50 goes with Cn1cnc(-c2cc(Cl)c(F)c(C(=O)NNS(=O)(=O)CC3CCC(NC(N)=O)C3)c2)c1 (stereo not drawn) ?
Given back: 10 to 50 µM

Further cases:
Asked: I am curious: what IC50 value has been reported for CCNC(=O)N1C[C@H](CS(=O)(=O)NNC(=O)c2cc(-c3cn(C)cn3)cc(Cl)c2F)[C@@H](C)C1 ?
Given back: 10 to 50 µM

Asked: Data request, read-out IC50, for Cn1cnc(-c2cc(Cl)c(F)c(C(=O)NNS(=O)(=O)CC3CC4CCC3C4)c2)c1 (stereo not drawn)
Given back: < 10 µM

Asked: Quick check: IC50 of CCNC(=O)N1CC(CS(=O)(=O)NNC(=O)c2cc(-c3cn(C)cn3)cc(Cl)c2F)C1 ?
Given back: 10 to 50 µM

Asked: Fill in: IC50 of Cn1cnc(-c2cc(Cl)c(F)c(C(=O)NNS(=O)(=O)CC3CCOC3)c2)c1 (stereo not drawn) is ___
Given back: 10 to 50 µM

###

Property: IC50; scope: individual molecules
# assay-system: KAT-8 (Homo sapiens (Human), UniProt Q9H7Z6)
# method: KAT-8 biochemical inhibition assay (SAMDI mass spectrometry)

# annotated cases, reported IC50 shown
Asked: Provide the documented IC50 with KAT-8 (Homo sapiens (Human), UniProt Q9H7Z6) as the system for Cn1cnc(-c2cc(Cl)c(F)c(C(=O)NNS(=O)(=O)C[C@H]3CCC[C@H](O)C3)c2)c1
Given back: 10 to 50 µM

Asked: Form: Entry = Cn1cnc(-c2cc(Cl)c(F)c(C(=O)NNS(=O)(=O)CC3CCC(C)(C)CC3)c2)c1 | System = KAT-8 (Homo sapiens (Human), UniProt Q9H7Z6) | IC50 = ____
Given back: 10 to 50 µM

Asked: Form field - read-out: IC50; system: KAT-8 (Homo sapiens (Human), UniProt Q9H7Z6); submitted item: CCS(=O)(=O)NNC(=O)c1cc(-c2cn(C)cn2)cc(Cl)c1F
Given back: > 100 µM

Asked: What IC50 appears in the records for this molecule with KAT-8 (Homo sapiens (Human), UniProt Q9H7Z6)? Cn1cnc(-c2cc(F)c(F)c(C(=O)NNS(=O)(=O)CC3CCOCC3)c2)c1
Given back: 10 to 50 µM

Asked: Value wanted: IC50 (KAT-8 (Homo sapiens (Human), UniProt Q9H7Z6)) of entry COCC(=O)N1CCCC(CS(=O)(=O)NNC(=O)c2cc(-c3cn(C)cn3)cc(C)c2F)C1 (centres unmarked)
Given back: > 100 µM

Asked: Return IC50 measured with KAT-8 (Homo sapiens (Human), UniProt Q9H7Z6) given this molecule: CC(C)NC(=O)N1CC(CS(=O)(=O)NNC(=O)c2cc(-c3cn(C)cn3)cc(Cl)c2F)C1
Given back: 10 to 50 µM

Asked: Requested read-out IC50, target or system KAT-8 (Homo sapiens (Human), UniProt Q9H7Z6), entry COCCn1cc(-c2cc(C)c(F)c(C(=O)NNS(=O)(=O)C3CCCCC3)c2)cn1
Given back: > 100 µM

We now examine a further molecule.
Asked: Record Cn1cnc(-c2cc(Cl)c(F)c(C(=O)NNS(=O)(=O)C[C@H]3CC[C@H](NC(=O)c4ccccc4)CC3)c2)c1 : what is its IC50 with KAT-8 (Homo sapiens (Human), UniProt Q9H7Z6)?
Given back: 10 to 50 µM
